- test-name: chemical genetic growth profiling, strain panel (AID 1159580);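 also: tested at 20 µM; growth read once vehicle control cultures reached saturation at 30 °C; 1 = growth at the plate median or of vehicle wells; lower values mean less growth of the strain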
- condition: S. cerevisiae deletion strains, growth OD, locus YFR010W, strain ubp6, hits give low values
Hit rate of the full screen: of about 5,500 compounds, about 2,000 (36%) were called active. Inconclusive results (about 18%) are left out. Some of the results follow.
observation-type: normalized growth
Quick one: just the number, no unit, thanks!

# compound, normalized growth
records = [
    ("Cn1c(=O)c2[nH]cnc2n(C)c1=O", 0.99),
    ("CO/N=C(\\C(=O)NC1C(=O)N2C(C(=O)O)=C(COC(N)=O)CSC12)c1ccco1 (stereo not drawn)", 0.966),
    ("CCCCC(=O)Oc1ccccc1C(=O)O", 1),
    ("CCN(CC)CCOC(=O)c1ccc(N)cc1", 0.988),
    ("CCOC(=O)Nc1nc2ccccc2[nH]1", 0.937),
    ("CO/N=C(\\C(=O)N[C@@H]1C(=O)N2C(C(=O)O)=C(COC(C)=O)CS[C@H]12)c1csc(N)n1", 0.97),
    ("O=S1OCC2C(CO1)C1(Cl)C(Cl)=C(Cl)C2(Cl)C1(Cl)Cl (stereo not drawn)", 0.984),
    ("O=C(C1CCCCC1)N1CC(=O)N2CCc3ccccc3C2C1 (stereo not drawn)", 1.01),
]

In: # get_value(readout='normalized growth', item= Nc1ccn(C2O[C@H](CO)[C@@H](O)[C@@H]2O)c(=O)n1 (stereo partly drawn) )
Out: 0.976

In: Any idea what its normalized growth is? The compound is CC1(C)NC(=O)N(c2ccc([N+](=O)[O-])c(C(F)(F)F)c2)C1=O
Out: 0.985

In: Entry under review: COc1cc2c(cc1OC)C1Cc3ccc(OC)c(OC)c3CN1CC2 (stereo not drawn) . Reported normalized growth?
Out: 0.96

In: Would you mind telling me what normalized growth value was observed for OC(Cn1cncn1)(Cn1cncn1)c1ccc(F)cc1F ?
Out: 0.982

In: Looking for the measured normalized growth of O=C1CC2OCC=C3CN4CC[C@]56c7ccccc7N1C5[C@H]2[C@H]3CC46 (stereo partly drawn) , can you help?
Out: 1.02

In: Entry CCCCOC(=O)c1ccc(N)cc1 has what normalized growth?
Out: 0.924

In: Item Cc1cc(-c2ccccc2)nnc1NCCN1CCOCC1 has what recorded normalized growth?
Out: 0.992

In: Give the measured normalized growth of COc1ccc(CCN2CCC(Nc3nc4ccccc4n3Cc3ccc(F)cc3)CC2)cc1 .
Out: 0.838

In: Returns the measured normalized growth for the input compound. Input: CC(C)COCC(CN(Cc1ccccc1)c1ccccc1)N1CCCC1 (stereo not drawn)
Out: 0.998

In: Value lookup for normalized growth; key = CC(C)C(=O)Nc1ccc([N+](=O)[O-])c(C(F)(F)F)c1
Out: 1.04

In: // normalized growth lookup, key: C[N+]1(C)C2CC(OC(=O)[C@@H](CO)c3ccccc3)CC1C1OC12 (stereo partly drawn)
Out: 0.978

In: Dear colleague, I am looking for the recorded normalized growth of the following compound: Cc1cc(NC(=O)C2=C(O)c3ccccc3S(=O)(=O)N2C)no1
Out: 1

In: Entry CO/N=C(\C(=O)N[C@@H]1C(=O)N2C(C(=O)O)=C(CSc3nc(=O)c(O)nn3C)CS[C@H]12)c1csc(N)n1 has what normalized growth?
Out: 0.959

In: # input compound: CCCCNc1ccc(C(=O)OCCN(C)C)cc1 ; wanted: its normalized growth
Out: 0.991

In: Give its normalized growth value. Item: O=C1C=C2C=C[C@@H]3C[C@@]2(O1)[C@H]1CCCCN31
Out: 0.96

The reported measurements were obtained from PubChem BioAssay AID1159580.
